Assignment: determine reported percent inhibition of binding for the given binders.
Target: T1, human CD73 on cells (CD73-transfected HEK cells; native on PBMCs; OCI-AML3 cells) (human, UniProt P21589 27-549)
T1 construct: also called NT5E; gene ID 4907
T1 sequence: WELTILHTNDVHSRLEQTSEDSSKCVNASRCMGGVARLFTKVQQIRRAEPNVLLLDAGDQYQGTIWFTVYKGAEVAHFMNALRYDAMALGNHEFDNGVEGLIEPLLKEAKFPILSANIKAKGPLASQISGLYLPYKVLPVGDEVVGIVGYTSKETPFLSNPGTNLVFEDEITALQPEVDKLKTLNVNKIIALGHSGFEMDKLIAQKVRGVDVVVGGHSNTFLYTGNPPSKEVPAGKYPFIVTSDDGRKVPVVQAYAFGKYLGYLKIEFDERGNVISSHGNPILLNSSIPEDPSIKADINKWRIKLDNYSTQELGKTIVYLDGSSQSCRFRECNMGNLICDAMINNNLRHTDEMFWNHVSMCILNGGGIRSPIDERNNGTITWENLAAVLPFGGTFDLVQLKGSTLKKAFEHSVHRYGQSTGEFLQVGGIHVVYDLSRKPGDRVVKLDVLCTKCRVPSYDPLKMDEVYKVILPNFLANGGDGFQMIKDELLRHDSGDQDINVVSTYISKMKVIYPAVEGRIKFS
Test: flow cytometry, human CD73-expressing cells; competitor: IPH5301

binder	assay endpoint	result
SB143 rabbit IgG hcAb (Fc fusion, not shown: hinge and Fc-domains of rabbit IgG) heavy: QVQLVESGGGLVQAGGSLRLSCAASGRTFSRSTMGWFRQAPGKERVFVAAIRWIGGTTTYGDSVKGRFTISVDNAKNTLYLQMNSLKPEDTAVYYCAATAGGPYYLGGRDILYDYWGQGTQVTVSS	percent inhibition of binding	99%
SB139 rabbit IgG hcAb (Fc fusion, not shown: hinge and Fc-domains of rabbit IgG) heavy: QVQLQESGGGLVQAGGSLRLSCAASENIFNIYGMGWYRQAPGKLRDLVAKITSGGRTTYADSVKGRFTISGDNAKNTVYLQMNSLKPEDTAVYYCNSYYYWGQGTQVTVSS	percent inhibition of binding	66%
SB116 rabbit IgG hcAb (Fc fusion, also called SB116-rbFc; dimeric SB116 Fc construct; not shown: hinge and Fc-domains of rabbit IgG) heavy: QVKLQESGGGRVQTGGSLRLSCAASGISFSITTMYWYRQAPGEQRQLVALITDRGNTYYVDSVKGRFTISRDDSKNTVYLQMNDLKPEDTAVYFCNSIPGNDWGQGTQVTVSS	percent inhibition of binding	94%
SB141 rabbit IgG hcAb (Fc fusion, not shown: hinge and Fc-domains of rabbit IgG) heavy: QVQLVESGGGLVQPGGSLRLSCAASGFTFINYHMSWLRQAPGKGLEWVSEIHSRGDITSYTNSVKGRFTISRDNAKNTLYLQMNSLKFDDTAVYYCARSRDLFNEGEYDYWGRGTQVTVSS	percent inhibition of binding	40%
SB121 rabbit IgG hcAb (Fc fusion, not shown: hinge and Fc-domains of rabbit IgG) heavy: QVQLQESGGGLVQAGGSLRLSCAASGSIGSIIAMGWYRQGPGKQRELVARMFTDDGSTNYDDSVKGRFTISRDSAGTTVYLQMNSLKPEDTAVYYCNAQRRWNAYWGPGTQVTVSS	percent inhibition of binding	77%

// below: percent inhibition of binding requested for another binder
Read off the recorded percent inhibition of binding for SB96 rabbit IgG hcAb (Fc fusion, VHH fused upstream of hinge and Fc of rabbit IgG; also called Nb-rbIgG hcAb SB96; not shown: hinge and Fc-domains of rabbit IgG) heavy: DVQLQASGGGLVQPGGSLRLSCTASGFTLDYLSIGWFRQVPGKEREGVSCINSSGGSTNYADSLKGRLTISRDNAKNTVYLQMNSLKPEDTAVYYCAAHKYYYCSNKVEVFDYWGQGTPVTVSS
90%

Cited source for all entries: patent US20240417484A1
